Origin of the recorded values: patent US9873702B2

Target: dopamine transporter (DAT) (Rattus norvegicus, UniProt P23977)
Sequence (P23977 whole entry): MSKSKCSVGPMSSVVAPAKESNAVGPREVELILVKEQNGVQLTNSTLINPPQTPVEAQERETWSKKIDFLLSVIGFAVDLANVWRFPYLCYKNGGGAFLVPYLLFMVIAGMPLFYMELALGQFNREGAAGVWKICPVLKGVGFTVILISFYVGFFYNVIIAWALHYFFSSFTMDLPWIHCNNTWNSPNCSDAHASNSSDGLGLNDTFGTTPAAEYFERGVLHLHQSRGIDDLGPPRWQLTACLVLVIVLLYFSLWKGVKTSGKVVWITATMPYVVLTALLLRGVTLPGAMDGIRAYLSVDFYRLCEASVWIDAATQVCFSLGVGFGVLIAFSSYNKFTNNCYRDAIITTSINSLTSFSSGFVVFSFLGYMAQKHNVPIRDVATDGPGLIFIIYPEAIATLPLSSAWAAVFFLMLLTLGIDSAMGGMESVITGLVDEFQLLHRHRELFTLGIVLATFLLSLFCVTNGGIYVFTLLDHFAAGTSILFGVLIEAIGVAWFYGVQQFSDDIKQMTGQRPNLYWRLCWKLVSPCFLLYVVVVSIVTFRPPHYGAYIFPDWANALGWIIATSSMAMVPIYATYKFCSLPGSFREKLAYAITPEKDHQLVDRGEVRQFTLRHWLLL
Experiment: Dopamine reuptake ([^3H]dopamine uptake) inhibition in rat brain synaptosomes
Conditions: read-out: DA Uptake Emax (% I ± SD)
Reported Emax values follow for various compounds

>  <compound>
Cc1cc2nccn2cc1-c1nc(NCC(CN(C)C)c2ccccc2)c2ccccc2n1 (stereo not drawn)

>  <Emax>
77%

$$$$
>  <compound>
Cc1nc(C)c(-c2nc(NCC(c3ccccc3)c3ccccc3)c3ccccc3n2)s1

>  <Emax>
80%

$$$$
>  <compound>
c1ccc(CCNc2nc(-c3ccc4nccn4c3)nc3ccccc23)cc1

>  <Emax>
51%

$$$$
>  <compound>
c1ccc(C(CNc2nc(-c3cccnc3)nc3ccccc23)c2ccccc2)cc1

>  <Emax>
100%

$$$$
>  <compound>
Cc1c(-c2nc(NCC(c3ccccc3)c3ccccc3)c3ccccc3n2)ccc2nccn12

>  <Emax>
74%

$$$$
>  <compound>
OC(CNc1nc(-c2ccc3nccn3c2)nc2ccccc12)(c1ccccc1)c1ccccc1

>  <Emax>
70%

$$$$
>  <compound>
c1ccc(C(CNc2nc(-c3cnc4nccn4c3)nc3ccccc23)N2CCCCC2)cc1 (stereo not drawn)

>  <Emax>
81%

$$$$
>  <compound>
c1ccc(C(CNc2nc(-c3ccsc3)nc3ccccc23)c2ccccc2)cc1

>  <Emax>
< 100%

$$$$
>  <compound>
c1ccc2c(NCC(c3ccncc3)c3ccncc3)nc(-c3cnc4nccn4c3)nc2c1

>  <Emax>
70%

$$$$
>  <compound>
c1ccc(C(CNc2nc(-c3cnc(N4CCCC4)nc3)nc3ccccc23)c2ccccc2)cc1

>  <Emax>
66%

$$$$
>  <compound>
FC(F)(F)c1cc2nccn2cc1-c1nc(NCC(c2ccccc2)c2ccccc2)c2ccccc2n1

>  <Emax>
74%

$$$$
>  <compound>
c1ccc(C(CNc2nc(N3CCc4c([nH]c5ccccc45)C3)nc3ccccc23)c2ccccc2)cc1

>  <Emax>
80%

$$$$
>  <compound>
c1ccc(C(c2ccccc2)N2CC(Nc3nc(-c4ccc5nccn5c4)nc4ccccc34)C2)cc1

>  <Emax>
81%

$$$$
>  <compound>
c1cncc(C(CNc2nc(-c3ccc4nccn4c3)nc3ccccc23)c2ccc[nH]2)c1 (stereo not drawn)

>  <Emax>
77%

$$$$
>  <compound>
CS(=O)(=O)Nc1ccc(-c2nc(NCC(c3ccccc3)c3ccccc3)c3ccccc3n2)cn1

>  <Emax>
63%

$$$$
>  <compound>
c1ccc(C(CNc2nc(-n3cncn3)nc3ccccc23)c2ccccc2)cc1

>  <Emax>
100%

$$$$
>  <compound>
O=C1Cc2cc(-c3nc(NCC(c4ccccc4)c4ccccc4)c4ccccc4n3)ccc2N1

>  <Emax>
77%

$$$$
>  <compound>
c1ccc2c(NCC(c3ccncc3)c3ccncc3)nc(-c3ccc4nccn4c3)nc2c1

>  <Emax>
68%

$$$$
>  <compound>
c1ccc(C(CNc2nc(-c3ccc4cc[nH]c4c3)nc3ccccc23)c2ccccc2)cc1

>  <Emax>
81%

$$$$
>  <compound>
COCc1c[nH]c2ccc(-c3nc(NCC(c4ccccc4)c4ccccc4)c4ccccc4n3)cc12

>  <Emax>
69%

$$$$
>  <compound>
c1ccc(C(CNc2nc(-c3ccc4cnccc4c3)nc3ccccc23)c2ccccc2)cc1

>  <Emax>
70%

$$$$
>  <compound>
c1ccc(C(CNc2nc(-c3cnc4nccn4c3)nc3ccccc23)N2CCOCC2)cc1 (stereo not drawn)

>  <Emax>
69%

$$$$
>  <compound>
c1ccc(C(CCNc2nc(-c3cncnc3)nc3ccccc23)c2ccccc2)cc1

>  <Emax>
100%

$$$$
>  <compound>
Cl.c1ccc(C(CNc2nc(-c3ccc4nccn4c3)nc3cc(OCCCN4CCOCC4)ccc23)c2ccccc2)cc1 [compound 125, Hydrochloride]

>  <Emax>
52%

$$$$
>  <compound>
c1ccc(C(CNc2nc(N3CCCCC3)nc3ccccc23)c2ccccc2)cc1

>  <Emax>
100%

$$$$
>  <compound>
COc1cc2nc(-c3cccs3)nc(NCC(c3ccccc3)c3ccccc3)c2cc1OC

>  <Emax>
100%

$$$$
>  <compound>
c1ccc(C(CNc2nc(-c3cccc4ncccc34)nc3ccccc23)c2ccccc2)cc1

>  <Emax>
73%

$$$$
>  <compound>
COc1ccc2nc(-c3ccc4[nH]ccc4c3)nc(NCC(c3ccccc3)c3ccccc3)c2c1

>  <Emax>
80%

$$$$
>  <compound>
c1ccc(C(CNc2nc(-n3cnc4cncnc43)nc3ccccc23)c2ccccc2)cc1

>  <Emax>
75%

$$$$
>  <compound>
c1ccc(C(CNc2nc(-c3ccc4ncccc4c3)nc3ccccc23)c2ccccc2)cc1

>  <Emax>
68%

$$$$
>  <compound>
c1ccc(C(CNc2nc(-c3ccc4cn[nH]c4c3)nc3ccccc23)c2ccccc2)cc1

>  <Emax>
68%

$$$$
>  <compound>
Cc1cc2nccn2cc1-c1nc(NCCc2ccccn2)c2ccccc2n1

>  <Emax>
77%

$$$$
>  <compound>
c1ccc(C(CNc2nc(-c3ccc4nccn4c3)nc3ccccc23)c2ccccn2)cc1 (stereo not drawn)

>  <Emax>
69%

$$$$
